# Study Target: T1, ZIKV-VLP (Native Antigen Inc.) (Zika virus)
# T1 construct: also called Zika VLP; ZVLP
# Assay Text: BLI binning on ZIKV-VLP; 1st mAb: 11-3

Binder: anti-ZIKV antibody 306-2 (antibody, V domains shown) VH: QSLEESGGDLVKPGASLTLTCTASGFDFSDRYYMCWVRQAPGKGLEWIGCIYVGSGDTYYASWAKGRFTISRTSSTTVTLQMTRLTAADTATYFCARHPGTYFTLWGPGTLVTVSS VL: DVVMTQTPSSVSAAVGGTVTINCQASQNIVNNLAWYQQRPGQPPKLLIYDTSTLASGVPSRFKGSGSGTEFTLTISDLECADAATYYCQTYYYYNKIINGFGGGTEVVVKG
response of 2nd mAb: 0.34
//
Binder: anti-ZIKV antibody 11-3 (antibody, V domains shown, also called clone 11-3) VH: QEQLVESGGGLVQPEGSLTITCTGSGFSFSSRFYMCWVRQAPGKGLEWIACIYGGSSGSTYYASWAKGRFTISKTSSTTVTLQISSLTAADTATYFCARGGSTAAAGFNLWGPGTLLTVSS VL: DVVMTQTPASVSATVGGTVTIKCQASEDIYNLLAWYQQKPGQPPKLLIYYASTLASGVPSRFKGSGSGTEFTLTISDLECADAATYYCQCNDYGGTYVPNAFGGGTEVVVKG
response of 2nd mAb: 0.06
//
Binder: anti-ZIKV antibody 270-12 (antibody, V domains shown, also called clone 270-12) VH: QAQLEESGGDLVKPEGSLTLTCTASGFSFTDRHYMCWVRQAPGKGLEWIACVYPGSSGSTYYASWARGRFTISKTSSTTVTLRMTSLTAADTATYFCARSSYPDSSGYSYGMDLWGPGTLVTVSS VL: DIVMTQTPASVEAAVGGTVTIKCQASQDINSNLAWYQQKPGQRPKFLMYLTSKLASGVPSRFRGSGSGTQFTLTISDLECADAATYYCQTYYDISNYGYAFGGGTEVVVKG
response of 2nd mAb: 0.47
//
Binder: anti-ZIKV antibody 78-2 (antibody, V domains shown, also called clone 78-2) VH: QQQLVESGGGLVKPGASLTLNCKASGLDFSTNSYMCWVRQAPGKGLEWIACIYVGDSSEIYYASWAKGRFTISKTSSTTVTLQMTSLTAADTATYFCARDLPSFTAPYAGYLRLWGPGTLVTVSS VL: QPVLTQPPSLSASLGTTARLTCTLRTGYNVGDYPLLWLQRVPGRPPRYLLTYHTEEFKHQGSGVHSRFSGSKDASENAGVLSISGLQPEDEANYYCYTVHATESSLHYVFGGGTQLTVTG
response of 2nd mAb: 0.42
